All figures here come from patent US20160244437A1.

target: human factor XIa (Homo sapiens, UniProt P03951); construct: purchased Kordia; assay: Measurement of FXIa inhibition (fluorogenic peptide substrate Boc-Glu(OBzl)-Ala-Arg-AMC); type: biochemical; details: factor XIa from Kordia 0.45 nM, 15 min pre-incubation, 30 min at 22° C., fluorescence
Sequence (P03951 388-625 limits assumed): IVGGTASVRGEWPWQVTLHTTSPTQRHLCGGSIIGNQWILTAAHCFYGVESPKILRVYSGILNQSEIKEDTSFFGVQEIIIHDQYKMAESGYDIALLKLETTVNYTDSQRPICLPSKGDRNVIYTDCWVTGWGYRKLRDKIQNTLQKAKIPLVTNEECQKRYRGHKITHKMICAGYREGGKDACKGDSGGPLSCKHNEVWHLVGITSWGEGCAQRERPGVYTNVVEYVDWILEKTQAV
Sequence (P03951 19-387 partner limits assumed): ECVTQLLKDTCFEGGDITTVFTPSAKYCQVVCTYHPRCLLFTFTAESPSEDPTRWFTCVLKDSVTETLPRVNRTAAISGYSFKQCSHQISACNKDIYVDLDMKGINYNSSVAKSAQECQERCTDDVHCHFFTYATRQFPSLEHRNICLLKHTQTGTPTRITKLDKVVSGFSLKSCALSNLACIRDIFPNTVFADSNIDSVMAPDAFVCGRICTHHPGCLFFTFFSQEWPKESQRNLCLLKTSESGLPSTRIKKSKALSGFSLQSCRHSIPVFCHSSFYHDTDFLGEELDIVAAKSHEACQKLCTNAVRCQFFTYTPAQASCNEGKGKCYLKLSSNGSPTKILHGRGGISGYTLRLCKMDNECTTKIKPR
pIC50: −log10 of the molar value. Structures can show the parent of a compound that is named as a salt.
MEASURE_NAME: pIC50

>>> reported_result("Cc1ccc(S(=O)(=O)N(C)C)cc1-c1cccc(C[C@H](NC(=O)[C@H]2CC[C@H](CN)CC2)C(=O)Nc2ccc(-c3noc(=O)[nH]3)cc2)c1 [Example 23, hydrochloride]")
8.44
>>> reported_result("NC[C@H]1CC[C@H](C(=O)N[C@@H](Cc2cccc(-c3cc(C(N)=O)ccc3Cl)c2)C(=O)Nc2ccc(-c3nnn[nH]3)cc2)CC1 [Example 38, hydrochloride]")
8.32

(1) CCN(CC)CCNC(=O)c1ccc(-c2cccc(C[C@H](NC(=O)[C@H]3CC[C@H](CN)CC3)C(=O)Nc3ccc(-c4nnn[nH]4)cc3)c2)cc1 [Example 42, hydrochloride]
(2) NC[C@H]1CC[C@H](C(=O)N[C@@H](Cc2cccc(-c3ccc(C(=O)NC4CCNCC4)cc3)c2)C(=O)Nc2ccc3cn[nH]c3c2)CC1 [Example 51, hydrochloride]
(3) CN1CCN(C(=O)c2ccc(-c3cccc(C[C@H](NC(=O)[C@H]4CC[C@H](CN)CC4)C(=O)Nc4ccc(-c5nnc(Cl)[nH]5)cc4)c3)cc2)CC1 [Example 27, hydrochloride]
// sort entries: pIC50, high to low # output: labels, in the requested order
3, 1, 2

====

test system: human and animal plasma; test: Determination of anticoagulatory activity: activated partial thromboplastin time (aPTT) in plasma; conditions: concentration of test substance which brings about a 1.5-fold extension of the aPTT; plasma in vitro, C.K. Prest kit
Where a name gives a salt, the structure may show the parent alone.
# Lookup of reported aPTT keyed by entry
Number only, in µmol/L; omit the unit.

# count of solved cases: 3
>>> reported_result("COCCOCCOCCNC(=O)c1cccc(-c2cc(C[C@H](NC(=O)[C@H]3CC[C@H](CN)CC3)C(=O)Nc3ccc(-c4nnn[nH]4)cc3)ccc2C)c1 [Example 18, hydrochloride]")
0.4
>>> reported_result("Cc1ccc(S(=O)(=O)N2CCCC2)cc1-c1cccc(C[C@H](NC(=O)[C@H]2CC[C@H](CN)CC2)C(=O)Nc2ccc3[nH]c(=O)[nH]c3c2)c1 [Example 11, hydrochloride]")
0.3
>>> reported_result("Cc1cc(S(=O)(=O)NC2CCNCC2)ccc1-c1cccc(C[C@H](NC(=O)[C@H]2CC[C@H](CN)CC2)C(=O)Nc2ccc(-c3nnc(Cl)[nH]3)cc2)c1 [Example 55, hydrochloride]")
0.14

Find the recorded aPTT belonging to NC[C@H]1CC[C@H](C(=O)N[C@@H](Cc2cccc(-c3cccc(C(=O)NCCN4CCOCC4)c3)c2)C(=O)Nc2ccc(-c3nnn[nH]3)cc2)CC1 [Example 29, hydrochloride] and report it.
0.37

Find the recorded aPTT belonging to CCN(CC)CCNC(=O)c1ccc(-c2cccc(C[C@H](NC(=O)[C@H]3CC[C@H](CN)CC3)C(=O)Nc3ccc(-c4nnn[nH]4)cc3)c2)cc1 [Example 42, hydrochloride] and report it.
0.35

Find the recorded aPTT belonging to NC[C@H]1CC[C@H](C(=O)N[C@@H](Cc2cccc(-c3cncc(S(=O)(=O)NC4CCNCC4)c3)c2)C(=O)Nc2ccc(-c3nnc(Cl)[nH]3)cc2)CC1 [Example 106, hydrochloride] and report it.
0.13
